System: STAPHYLOCOCCUS AUREUS A5177
Assay Protocol: In vitro antibacterial activity, MIC, BHI agar dilution
Type: cell-based
Condition Summary: S. aureus A5177, unit assumed
Readout Name: log10 MIC (log10 of the value in µg/mL)
Answers are given as log10 of MIC in µg/mL.

Quick one: give measured log10 MIC for `CC[C@H]1OC(=O)[C@H](C)C(=O)[C@H](C)[C@@H](O[C@@H]2O[C@H](C)C[C@H](N(C)C)[C@H]2O)[C@](C)(OC)C[C@@H](C)C2=N[C@@H](COCc3ccccc3)CN3C(=O)O[C@@]1(C)[C@H]3[C@H]2C`
-0.41

Give a short answer stating reported log10 MIC for `CC[C@H]1OC(=O)[C@H](C)C(=O)[C@H](C)[C@@H](O[C@@H]2O[C@H](C)C[C@H](N(C)C)[C@H]2O)[C@](C)(OC)C[C@@H](C)C2=NC[C@H](COC(=O)c3ccncc3)N3C(=O)O[C@@]1(C)[C@H]3[C@H]2C` .
-0.41

Give recorded log10 MIC. CC[C@H]1OC(=O)[C@H](C)C(=O)[C@H](C)[C@@H](O[C@@H]2O[C@H](C)C[C@H](N(C)C)[C@H]2O)[C@](C)(OC)C[C@@H](C)C2=NC(COCc3ccc(Cl)cc3)C(COCc3ccc(Cl)cc3)N3C(=O)O[C@@]1(C)[C@H]3[C@H]2C (stereo partly shown)
0.19

Tell me its log10 MIC given CCC1OC(=O)C(C)C(=O)C(C)C(OC2OC(C)CC(N(C)C)C2O)C(C)(OC)CC(C)C2=NC(COCSC)CN3C(=O)OC1(C)C3C2C (stereo not shown) as the entry.
-0.41

Return log10 MIC for the following molecule: `CC[C@H]1OC(=O)[C@H](C)C(=O)[C@H](C)[C@@H](O[C@@H]2O[C@H](C)C[C@H](N(C)C)[C@H]2O)[C@](C)(OC)C[C@@H](C)C2=N[C@H](COCc3ccccc3Br)CN3C(=O)O[C@@]1(C)[C@H]3[C@H]2C`
-1.30

Given the molecule `CC[C@H]1OC(=O)[C@H](C)C(=O)[C@H](C)[C@@H](O[C@@H]2O[C@H](C)C[C@H](N(C)C)[C@H]2O)[C@](C)(OC)C[C@@H](C)C2=NC[C@@H](COCc3ccccc3)N3C(=O)O[C@@]1(C)[C@H]3[C@H]2C` , write its reported log10 MIC.
-1.00

State its log10 MIC: CC[C@H]1OC(=O)[C@H](C)C(=O)[C@H](C)[C@@H](O[C@@H]2O[C@H](C)C[C@H](N(C)C)[C@H]2O)[C@](C)(OC)C[C@@H](C)C2=NCC(COC(=O)c3ccc4ccccc4n3)N3C(=O)O[C@@]1(C)[C@H]3[C@H]2C (stereo partly shown)
-0.70

Answer with reported log10 MIC of CC[C@H]1OC(=O)[C@H](C)C(=O)[C@H](C)[C@@H](O[C@@H]2O[C@H](C)C[C@H](N(C)C)[C@H]2O)[C@](C)(OC)C[C@@H](C)C2=NC3CN(CCc4cccc([N+](=O)[O-])c4)CC3N3C(=O)O[C@@]1(C)[C@H]3[C@H]2C (stereo partly shown)
-0.70

Name the recorded log10 MIC of the item `CC[C@H]1OC(=O)[C@H](C)C(=O)[C@H](C)[C@@H](O[C@@H]2O[C@H](C)C[C@H](N(C)C)[C@H]2O)[C@](C)(OC)C[C@@H](C)C2=N[C@H](COCc3ccc(Br)cc3)CN3C(=O)O[C@@]1(C)[C@H]3[C@H]2C` in your answer.
-1.30

Let me know recorded log10 MIC for `CC[C@H]1OC(=O)[C@H](C)C(=O)[C@H](C)[C@@H](O[C@@H]2O[C@H](C)C[C@H](N(C)C)[C@H]2O)[C@](C)(OC)C[C@@H](C)C2=N[C@H](CO)CN3C(=O)O[C@@]1(C)[C@H]3[C@H]2C` , thanks.
-0.11

Give reported log10 MIC value for CC[C@H]1OC(=O)[C@H](C)C(=O)[C@H](C)[C@@H](O[C@@H]2O[C@H](C)C[C@H](N(C)C)[C@H]2O)[C@](C)(OC)C[C@@H](C)C2=NC3COCC3N3C(=O)O[C@@]1(C)[C@H]3[C@H]2C (stereo partly shown)
-0.41

Please report the measured log10 MIC for CC[C@H]1OC(=O)[C@H](C)C(=O)[C@H](C)[C@@H](O[C@@H]2O[C@H](C)C[C@H](N(C)C)[C@H]2O)[C@](C)(OC)C[C@@H](C)C2=NC3CN(CC(OC)OC)CC3N3C(=O)O[C@@]1(C)[C@H]3[C@H]2C (stereo partly shown)
0.19

Answer with the recorded log10 MIC for the molecule listed here: CC[C@H]1OC(=O)[C@H](C)C(=O)[C@H](C)[C@@H](O[C@@H]2O[C@H](C)C[C@H](N(C)C)[C@H]2O)[C@](C)(OC)C[C@@H](C)C2=NCC(COC(=O)c3ccccc3)N3C(=O)O[C@@]1(C)[C@H]3[C@H]2C (stereo partly shown)
-1.00

For `CC[C@H]1OC(=O)[C@H](C)C(=O)[C@H](C)[C@@H](O[C@@H]2O[C@H](C)C[C@H](N(C)C)[C@H]2O)[C@](C)(OC)C[C@@H](C)C2=NC[C@H](Cc3ccc(NC(=O)OCc4ccccc4)cc3)N3C(=O)O[C@@]1(C)[C@H]3[C@H]2C` , write its log10 MIC.
-0.70

Please list log10 MIC recorded for the molecule CC[C@H]1OC(=O)[C@H](C)C(=O)[C@H](C)[C@@H](O[C@@H]2O[C@H](C)C[C@H](N(C)C)[C@H]2O)[C@](C)(OC)C[C@@H](C)C2=NCC(COC(=O)c3cccc4[nH]ccc34)N3C(=O)O[C@@]1(C)[C@H]3[C@H]2C (stereo partly shown)
-1.00

Output measured log10 MIC for this item: CC[C@H]1OC(=O)[C@H](C)C(=O)[C@H](C)[C@@H](O[C@@H]2O[C@H](C)C[C@H](N(C)C)[C@H]2O)[C@](C)(OC)C[C@@H](C)C2=NC3CN(CCc4ccccc4[N+](=O)[O-])CC3N3C(=O)O[C@@]1(C)[C@H]3[C@H]2C (stereo partly shown)
-0.41
